Cited source: the RNAGym collection of RNA variant scans (doi:10.1073/pnas.2313332121)

B1: TPR 5TU (parent)
chain: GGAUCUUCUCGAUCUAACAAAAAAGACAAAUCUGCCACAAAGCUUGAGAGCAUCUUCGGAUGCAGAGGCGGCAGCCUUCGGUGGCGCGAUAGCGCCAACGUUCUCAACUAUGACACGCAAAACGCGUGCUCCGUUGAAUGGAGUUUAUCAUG

Variants of: B1
method: polymerase ribozyme fitness, log enrichment relative to wild type (log ratio); higher = more active; in vitro selection for triplet polymerase activity
This sample holds only a part of the variants without activity.
Recorded measurements of polymerase ribozyme fitness (log ratio), one per entry
Give the value as a plain number.

C132U C149G :: -3.84
A21G U31A C95A :: 0.669
A12C A19U U31G A41C C93A G141A :: -3.98
C54U G59C A97U :: -0.658
A21G C57A :: 1.14

## Task Using the record for C72U C93U , report its polymerase ribozyme fitness (log ratio).
## Result -0.741

## Task Using the record for G58U G86A U130C , report its polymerase ribozyme fitness (log ratio).
## Result 0.803

## Task Using the record for U55A G84U G128U U134C , report its polymerase ribozyme fitness (log ratio).
## Result -4.17

## Task Using the record for U55G U127A , report its polymerase ribozyme fitness (log ratio).
## Result -3.34

## Task Using the record for G58U G81A A122G , report its polymerase ribozyme fitness (log ratio).
## Result -0.315
